// provenance: ChEMBL document CHEMBL2146457

- EXPERIMENT SUMMARY: Clearance in rat at 1 mg/kg, iv
- Type: ADME, organism-based
- Design: dose 1 mg/kg, route intravenous
- EXPERIMENTAL CONDITIONS: in vivo
clearance values by entry
PROPERTY NAME: clearance (mL/min/kg)

INSERT INTO results (structure_notation, reported_result) VALUES
  ('Cc1cn(-c2cc(NC(=O)c3cccc(-c4ccc5nc(NC(=O)C6CC6)sc5n4)c3)cc(C(F)(F)F)c2)cn1', 9.5),
  ('CCN1CCN(Cc2ccc(NC(=O)c3cccc(-c4ccc5nc(NC(=O)C6CC6)sc5n4)c3)cc2C(F)(F)F)CC1', 13.7);
